test system: NCI-H358(KRAS^G12C mutation) cells; test: Cell assay of antiproliferative activity (Celltiter-Glo, 5 days) against NCI-H358 cells; type: cell-based; settings: Homo sapiens, NCI-H358, 120 h, 5 days incubation
pIC50: −log10 of the molar value.
Measurement Label: pIC50

// below: answered molecules
C=CC(=O)N1CCN(c2nc(OCCN(C)C3COC3)nc3c2CCN(c2cccc4cccc(C)c24)C3)CC1CC#N (stereo not shown) :: 7.14
C=CC(=O)N1CCN(c2nc(OC[C@H](C)N(C)C3CC3)nc3c2CCN(c2cccc4cccc(C)c24)C3)CC1CC#N (stereo partly shown) :: 6.82

(1) C=CC(=O)N1CCN(c2nc(OC[C@H](C(C)C)N(C)C3CCC3)nc3c2CCN(c2cccc4cccc(Cl)c24)C3)CC1CC#N (stereo partly shown)
(2) C=CC(=O)N1CCN(c2nc(OC[C@H](C)N(C)CC3CC3)nc3c2CCN(c2cccc4cccc(C)c24)C3)CC1CC#N (stereo partly shown)
Between the two listed entries 1 and 2 , which has its pIC50 at the higher number? Which one? Tell me its label.
2
